# Target entity: mVDAC1 K236A (Mus musculus, UniProt Q60932, K249A)
# Sequence (Q60932 14-296 K249A): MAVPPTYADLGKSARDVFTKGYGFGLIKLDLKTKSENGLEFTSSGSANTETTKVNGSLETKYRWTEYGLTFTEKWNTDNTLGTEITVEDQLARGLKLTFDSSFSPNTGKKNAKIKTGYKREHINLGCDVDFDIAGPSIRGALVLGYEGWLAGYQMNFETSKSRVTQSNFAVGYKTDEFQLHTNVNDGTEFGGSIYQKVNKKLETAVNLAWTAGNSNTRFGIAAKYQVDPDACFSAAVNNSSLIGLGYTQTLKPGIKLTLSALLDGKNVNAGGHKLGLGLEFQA
# Procedure text: Fluorescence polarization NADH competition assay
# Test settings: apparent KD, NADH 5 μM, protein 7 μM, mean ± SEM n=3
pKd: −log10 of the molar value.
Experimental endpoint: pKd

Compound	Reported
O=C(CC(O)(c1nc2ccccc2s1)C(F)(F)F)c1cccc(Br)c1 (stereo not shown)	4.58
O=C1C(=Cc2ccc(Cl)cc2)CSc2ccccc21	4.62
CC(=O)N(c1nc(COC(=O)c2ccsc2)cs1)c1ccccc1F	4.55
Cc1ccc(C(=O)OCC(=O)N=c2sccn2Cc2ccccc2Cl)s1	4.54

====

Parameter Inflection temperature T(i), R218Y: see the listing below.
# Target entity: mVDAC1 R218Y (Mus musculus, UniProt Q60932, R231Y)
# Procedure text: Thermal denaturation
# Type: binding
# Test settings: small molecule 1 mM in DMF; mean ± SEM n=3

Molecule	Endpoint unit	Inflection temperature T(i), R218Y
Cc1ccc(C(=O)OCC(=O)N=c2sccn2Cc2ccccc2Cl)s1	°C	61.6
CC(=O)N(c1nc(COC(=O)c2ccsc2)cs1)c1ccccc1F	°C	62.2
O=C1C(=Cc2ccc(Cl)cc2)CSc2ccccc21	°C	62.3
O=C(CC(O)(c1nc2ccccc2s1)C(F)(F)F)c1cccc(Br)c1 (stereo not shown)	°C	62.3

====

Inflection temperature T(i), N238K for assorted compounds
# Target entity: mVDAC1 N238K (Mus musculus, UniProt Q60932, N251K)
# Sequence (Q60932 14-296 N251K): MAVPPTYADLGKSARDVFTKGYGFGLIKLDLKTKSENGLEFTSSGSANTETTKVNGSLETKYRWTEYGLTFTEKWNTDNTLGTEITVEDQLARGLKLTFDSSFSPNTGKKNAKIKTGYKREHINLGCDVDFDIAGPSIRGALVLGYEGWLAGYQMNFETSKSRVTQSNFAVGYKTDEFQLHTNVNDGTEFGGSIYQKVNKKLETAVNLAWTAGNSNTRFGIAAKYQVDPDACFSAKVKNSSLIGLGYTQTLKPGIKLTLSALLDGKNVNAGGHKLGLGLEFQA
# Procedure text: Thermal denaturation
# Type: binding
# Test settings: small molecule 1 mM in DMF; mean ± SEM n=3

Compound	Inflection temperature T(i), N238K (°C)
O=C1C(=Cc2ccc(Cl)cc2)CSc2ccccc21	64.5
O=C(CC(O)(c1nc2ccccc2s1)C(F)(F)F)c1cccc(Br)c1 (stereo not shown)	64.0
CC(=O)N(c1nc(COC(=O)c2ccsc2)cs1)c1ccccc1F	64.4
Cc1ccc(C(=O)OCC(=O)N=c2sccn2Cc2ccccc2Cl)s1	63.8

====

# Target entity: mVDAC1 wild-type (Mus musculus, UniProt Q60932)
# Sequence (Q60932 14-296): as the sequence (Q60932 14-296 N251K) above, with K238N counted along it
# Procedure text: Thermal denaturation
# Assay type: binding
# Test settings: small molecule 1 mM in DMF; mean ± SEM n=3

Compound	Endpoint unit	Inflection temperature T(i), WT
Cc1ccc(C(=O)OCC(=O)N=c2sccn2Cc2ccccc2Cl)s1	°C	60.2
CC(=O)N(c1nc(COC(=O)c2ccsc2)cs1)c1ccccc1F	°C	60.5
O=C(CC(O)(c1nc2ccccc2s1)C(F)(F)F)c1cccc(Br)c1 (stereo not shown)	°C	60.2
O=C1C(=Cc2ccc(Cl)cc2)CSc2ccccc21	°C	60.2

====

# Target entity: mVDAC1 N238F (Mus musculus, UniProt Q60932, N251F)
# Sequence (Q60932 14-296 N251F): as the sequence (Q60932 14-296 K249A) above, with A236K, N238F counted along it
# Procedure text: Thermal denaturation
# Format: binding
# Test settings: small molecule 1 mM in DMF; mean ± SEM n=3

Molecule	Endpoint unit	Inflection temperature T(i), N238F
Cc1ccc(C(=O)OCC(=O)N=c2sccn2Cc2ccccc2Cl)s1 [VA-C6]	°C	63.2
CC(=O)N(c1nc(COC(=O)c2ccsc2)cs1)c1ccccc1F [VA-D10]	°C	63.3
O=C(CC(O)(c1nc2ccccc2s1)C(F)(F)F)c1cccc(Br)c1 (stereo not shown) [VA-C1]	°C	64.0
O=C1C(=Cc2ccc(Cl)cc2)CSc2ccccc21 [VA-D11]	°C	63.1

====

# Tested on: Tumor (iCCA) organoids
# Procedure text: Organoid viability, CellTiter-Glo 3D
# Format: cell-based, human
# Test settings: Homo sapiens, 72 h, read-out: EC50, iCCA-derived organoids growth
pEC50: −log10 of the molar value.
Experimental endpoint: pEC50

Molecule	Experimental endpoint	Reported
O=C(CC(O)(c1nc2ccccc2s1)C(F)(F)F)c1cccc(Br)c1 (centres unmarked) [VA-C1]	pEC50	4.82
CC(=O)N(c1nc(COC(=O)c2ccsc2)cs1)c1ccccc1F [VA-D10]	pEC50	4.60

====

# Target entity: mVDAC1 N207R (Mus musculus, UniProt Q60932, N220R)
# Sequence (Q60932 14-296 N220R): as the sequence (Q60932 14-296 K249A) above, with N207R, A236K counted along it
# Procedure text: Thermal denaturation
# Assay type: binding
# Test settings: small molecule 1 mM in DMF; mean ± SEM n=3
Catalogue of Inflection temperature T(i), N207R values

Compound	Target entity	Inflection temperature T(i), N207R, °C
O=C(CC(O)(c1nc2ccccc2s1)C(F)(F)F)c1cccc(Br)c1 (stereo not shown) [VA-C1]	mVDAC1 N207R (Mus musculus, UniProt Q60932, N220R)	63.2
O=C1C(=Cc2ccc(Cl)cc2)CSc2ccccc21 [VA-D11]	mVDAC1 N207R (Mus musculus, UniProt Q60932, N220R)	62.9
CC(=O)N(c1nc(COC(=O)c2ccsc2)cs1)c1ccccc1F [VA-D10]	mVDAC1 N207R (Mus musculus, UniProt Q60932, N220R)	62.9
Cc1ccc(C(=O)OCC(=O)N=c2sccn2Cc2ccccc2Cl)s1 [VA-C6]	mVDAC1 N207R (Mus musculus, UniProt Q60932, N220R)	63.0

====

# Target entity: mVDAC1 wild-type (Mus musculus)
# Procedure text: Fluorescence polarization NADH competition assay
# Format: binding
pKd: −log10 of the molar value.

Compound	Target entity	pKd
CC(=O)N(c1nc(COC(=O)c2ccsc2)cs1)c1ccccc1F	mVDAC1 wild-type (Mus musculus)	4.73
Cc1ccc(C(=O)OCC(=O)N=c2sccn2Cc2ccccc2Cl)s1	mVDAC1 wild-type (Mus musculus)	4.73
O=C(CC(O)(c1nc2ccccc2s1)C(F)(F)F)c1cccc(Br)c1 (stereo not shown)	mVDAC1 wild-type (Mus musculus)	4.73
O=C1C(=Cc2ccc(Cl)cc2)CSc2ccccc21	mVDAC1 wild-type (Mus musculus)	4.80
